// reported Relative activity, Enzyme reaction per item
System: purified nitrile hydratase from NA40
TEST_DESCRIPTION: Substrate specificity of the purified nitrile hydratase
Assay type: biochemical, Amycolatopsis NA40
CONDITION_PARAMETERS: purified enzyme; 3-cyanopyridine = 100
Only the number, expressed in %, is required.

# annotated cases, reported Relative activity, Enzyme reaction shown
N#Cc1cccnc1Cl; 90
N#Cc1cccc(Cl)c1; 90
N#Cc1cccnc1; 100
N#Cc1ccccc1Cl; 127
N#Cc1ccccc1; 64

Problem: May I ask what Relative activity, Enzyme reaction has been recorded for `N#Cc1ccccn1` ?
Result: 221

Problem: So what's the measured Relative activity, Enzyme reaction for this one? `C=C(C)C#N`
Result: 125

Problem: Consider the molecule `CCC#N` and give its measured Relative activity, Enzyme reaction.
Result: 222

----------
System: Amycolatopsis NA40
TEST_DESCRIPTION: Effects of inducers and cofactors on growth and nitrile hydratase activity in the basal medium
Assay type: cell-based
CONDITION_PARAMETERS: substance added as inducer to basal medium
Overview of recorded Growth (OD610 nm) for various molecules
Respond with the bare value in OD610 nm.

Recorded Growth (OD610 nm), per entry:
CCC(N)=O [Propionamide]; 1.91
CCCC(N)=O [Butyramide]; 2.19
C/C=C/C(N)=O [Crotonamide]; 3.41
O=C1CCCCCN1; 0.66
NC(N)=O; 1.72

With those in mind, consider the next molecule.
Problem: Param item = C=C(C)C(N)=O [Methacrylamide] ; retrieve measured Growth (OD610 nm).
Result: 3.33

----------
Tested on: purified nitrile hydratase from NA40
Type: biochemical, Amycolatopsis NA40
CONDITION_PARAMETERS: inhibitor 1 mM; without inhibitor = 100
Listed compounds paired with reported Relative activity

Illustrative cases are given below, each with its answer.
O=S(=O)(O)c1cc(O)c(O)c(S(=O)(=O)O)c1; 110%
c1cnc2c(c1)ccc1cccnc12; 89%
NNc1ccccc1 [Phenylhydrazine]; 8%
CCN(CC)C(=S)S [Diethyl dithiocarbamate]; 89%
NNC(N)=O [Semicarbazide]; 82%
NO [Hydroxylamine]; 37%
CCN1C(=O)C=CC1=O [N-ethylmaleimide]; 97%

Read the next record carefully.
Problem: Any idea what Relative activity came out for `c1ccc(-c2ccccn2)nc1` on purified nitrile hydratase from NA40?
Result: 100%

----------
Tested on: Rhodococcus GF270
TEST_DESCRIPTION: Substrate specificity of the Rhodococcus strains
Type: cell-based
CONDITION_PARAMETERS: Rhodococcus GF270; 3-cyanopyridine = 100
Simple rule here: relative activity (substrate specificity) less than 60% is 1.0, otherwise 0.0.

For orientation, consider the following solved cases.
N#Cc1ccccn1; 1.0
N#Cc1ccncc1; 1.0
N#Cc1cccc(Cl)c1; 1.0
C=CC#N; 0.0
C=C(C)C#N; 1.0
CCC#N; 1.0

Problem: In the record for `CCCC#N` , is relative activity (substrate specificity) less than 60%?
Result: 0.0

Problem: Field: below-cutoff. Rule: recorded relative activity (substrate specificity) strictly less than 60%. Subject: `CC=CC#N`
Result: 1.0

Problem: Check if relative activity (substrate specificity) falls below 60% for `CC#N` .
Result: 0.0

Problem: In the record for `N#Cc1ccccc1Cl` , is relative activity (substrate specificity) less than 60%?
Result: 1.0

Problem: is_below(relative activity (substrate specificity), 60%) for `N#Cc1cccnc1` ?
Result: 0.0

Problem: Report whether reported relative activity (substrate specificity) is lower than 60% (strictly) for `N#Cc1ccccc1`
Result: 1.0
